- Species on record: Rattus norvegicus
- MEASUREMENT NOTES: Open TG-GATES - Regimen: Daily Repeat
- Assay type: toxicity, organism-based, Sprague-Dawley
- Set-up: regimen Daily Repeat, gender Male, age 6 weeks
- MEASUREMENT PARAMETERS: in vivo, po, 0 mg/kg, […], tissue Plasma, route gavage, dose level Control, time 14 day
Strictly below 6 g/dL in TP: Y. Otherwise: N.

Below, 4 compounds whose answers are already recorded.
COMPOUND: CC(=O)Oc1ccccc1C(=O)O [ASPIRIN]
CLASS ASSIGNMENT: Y
--
COMPOUND: Clc1ccccc1CN1CCc2sccc2C1 [TICLOPIDINE]
CLASS ASSIGNMENT: Y
--
COMPOUND: COc1ccc(Cc2nccc3cc(OC)c(OC)cc23)cc1OC [PAPAVERINE]
CLASS ASSIGNMENT: Y
--
COMPOUND: CCc1cc(C(N)=S)ccn1 [ETHIONAMIDE]
CLASS ASSIGNMENT: Y

Is TP of CO[C@H]1/C=C/O[C@@]2(C)Oc3c(C)c(O)c4c(O)c(c(/C=N/N5CCN(C)CC5)c(O)c4c3C2=O)NC(=O)/C(C)=C\C=C\[C@H](C)[C@H](O)[C@@H](C)[C@@H](O)[C@@H](C)[C@H](OC(C)=O)[C@@H]1C [RIFAMPIN] strictly below 6 g/dL? N

For this compound, is TP lower than 6 g/dL? O=C(O)c1cn(C2CC2)c2cc(N3CCNCC3)c(F)cc2c1=O [CIPROFLOXACIN] N

====

- Species on record: Rattus norvegicus
- MEASUREMENT NOTES: Open TG-GATES - Regimen: Daily Repeat
- Assay type: toxicity, organism-based, Sprague-Dawley
- Set-up: regimen Daily Repeat, gender Male, age 6 weeks
- MEASUREMENT PARAMETERS: in vivo, po, 0 mg/kg, […], tissue Blood, route gavage, dose level Control, time 28 day
Where Mono equals or exceeds 3%, the correct label is Criterion met; where it does not, the label is Criterion not met.

# count of solved cases: 3
COMPOUND: O=C(O)c1cn(C2CC2)c2cc(N3CCNCC3)c(F)cc2c1=O [CIPROFLOXACIN]
CLASS ASSIGNMENT: Criterion met
//
COMPOUND: CC(=O)Oc1ccccc1C(=O)O [ASPIRIN]
CLASS ASSIGNMENT: Criterion not met
//
COMPOUND: CSc1ccc2c(c1)N(CCC1CCCCN1C)c1ccccc1S2 (stereo not given) [THIORIDAZINE]
CLASS ASSIGNMENT: Criterion met

Could you verify whether the entry CCc1cc(C(N)=S)ccn1 [ETHIONAMIDE] shows Mono of no less than 3%? Criterion met

Is the recorded value of Mono equal to or greater than 3% for this compound? NC(=O)N/N=C/c1ccc([N+](=O)[O-])o1 [NITROFURAZONE] Criterion not met

Form field: Mono at least 3%? Entry: O=C(O)c1cc(/N=N/c2ccc(S(=O)(=O)Nc3ccccn3)cc2)ccc1O [SULFASALAZINE] Criterion not met

Is Mono at least 3%? Consider CN(C)CCC=C1c2ccccc2CCc2ccccc21 [AMITRIPTYLINE] Criterion not met

For this compound, is measured Mono 3% or higher? Cn1c(=O)c2[nH]cnc2n(C)c1=O.O [THEOPHYLLINE] Criterion not met

Does the compound Clc1ccccc1CN1CCc2sccc2C1 [TICLOPIDINE] have recorded Mono that is 3% or more? Criterion not met
